Could you please report measured pIC50 for the items listed next?
- system-name: Epidermal growth factor receptor (Homo sapiens, UniProt P00533, C797S/L858R/T790M)
- Sequence (P00533 25-1210 T790M/C797S/L858R limits assumed): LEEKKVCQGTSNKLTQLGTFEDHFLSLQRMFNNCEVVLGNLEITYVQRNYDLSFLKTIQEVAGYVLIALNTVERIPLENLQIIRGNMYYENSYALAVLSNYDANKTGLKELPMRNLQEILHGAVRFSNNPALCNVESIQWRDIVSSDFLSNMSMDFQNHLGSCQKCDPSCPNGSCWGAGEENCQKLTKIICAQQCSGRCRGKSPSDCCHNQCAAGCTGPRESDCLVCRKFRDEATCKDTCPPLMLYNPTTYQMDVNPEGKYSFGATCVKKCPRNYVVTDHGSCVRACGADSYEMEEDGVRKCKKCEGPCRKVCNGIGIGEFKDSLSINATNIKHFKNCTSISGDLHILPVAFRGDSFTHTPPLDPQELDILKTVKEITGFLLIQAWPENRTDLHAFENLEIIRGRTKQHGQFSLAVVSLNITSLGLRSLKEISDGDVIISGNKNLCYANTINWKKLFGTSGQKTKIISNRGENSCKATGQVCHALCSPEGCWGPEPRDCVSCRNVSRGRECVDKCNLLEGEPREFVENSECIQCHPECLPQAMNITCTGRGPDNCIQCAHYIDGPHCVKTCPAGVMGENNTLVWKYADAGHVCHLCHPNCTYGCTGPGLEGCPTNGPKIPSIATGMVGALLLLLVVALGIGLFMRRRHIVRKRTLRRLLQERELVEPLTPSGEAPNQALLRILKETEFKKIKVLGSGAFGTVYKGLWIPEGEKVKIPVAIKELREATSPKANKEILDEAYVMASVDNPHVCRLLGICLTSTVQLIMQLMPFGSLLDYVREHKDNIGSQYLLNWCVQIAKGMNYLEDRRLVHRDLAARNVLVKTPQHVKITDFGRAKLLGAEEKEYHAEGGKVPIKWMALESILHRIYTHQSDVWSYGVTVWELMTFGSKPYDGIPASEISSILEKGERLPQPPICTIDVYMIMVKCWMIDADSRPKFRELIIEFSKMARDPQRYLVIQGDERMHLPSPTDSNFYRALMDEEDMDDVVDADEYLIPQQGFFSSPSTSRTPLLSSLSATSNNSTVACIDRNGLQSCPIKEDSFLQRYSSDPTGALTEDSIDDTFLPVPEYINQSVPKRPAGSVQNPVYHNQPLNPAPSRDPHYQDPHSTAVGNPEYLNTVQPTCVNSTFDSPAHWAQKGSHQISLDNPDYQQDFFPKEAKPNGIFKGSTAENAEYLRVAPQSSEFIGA
- assay-comment: Inhibition of human EGFR L858R/T790M/C797S mutant using poly[Glu:Tyr] (4:1) as substrate measured in presence of [gamma-33P]ATP by radiometric assay
pIC50: −log10 of the molar value.

mol-smiles	pIC50
C=CC(=O)Nc1ccc(OC)c(Nc2cc(-c3nc(SC)n(C)c3-c3ccc(F)cc3)ccn2)c1	< 5.30

The compound C=CC(=O)Nc1ccc(OC)c(Nc2cc(-c3c(-c4ccc(F)cc4)nc(SC)n3C)ccn2)c1 showed pIC50 equal to < 5.30
